These entries and their values trace back to PubChem BioAssay AID504652.

EXPERIMENTAL SYSTEM: D(1A) dopamine receptor (Homo sapiens) (UniProt P21728)
Sequence (P21728 whole entry, looked up): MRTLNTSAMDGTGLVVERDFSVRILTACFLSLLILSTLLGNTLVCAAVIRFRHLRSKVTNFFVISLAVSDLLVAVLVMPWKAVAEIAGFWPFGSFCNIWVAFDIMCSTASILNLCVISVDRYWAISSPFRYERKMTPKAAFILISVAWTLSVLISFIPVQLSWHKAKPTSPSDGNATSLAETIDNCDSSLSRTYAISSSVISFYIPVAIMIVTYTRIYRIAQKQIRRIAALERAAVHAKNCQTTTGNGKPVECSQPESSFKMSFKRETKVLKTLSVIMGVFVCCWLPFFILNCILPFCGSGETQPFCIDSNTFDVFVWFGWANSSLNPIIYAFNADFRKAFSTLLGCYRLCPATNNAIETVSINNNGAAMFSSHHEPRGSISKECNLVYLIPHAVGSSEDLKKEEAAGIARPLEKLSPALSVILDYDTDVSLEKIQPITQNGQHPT
TEST: Antagonist of Human D 1 Dopamine Receptor: qHTS; also: % is scaled to controls: 0 for no effect and ±100 for the full control effect
ASSAY CONDITIONS: HEK293 TREx D1 cells, calcium flux, dopamine EC80; at 10 µM; hits give low values
In all, about 360,000 compounds went through this assay and about 11,000 (3.1%) were called active. The list comes from a sample in which actives are over-represented; it also holds close analogues and randomly drawn compounds.
For each of the molecules below, state its activity change, negative = inhibition.
State the answer as a number, implicitly in %.

Input `CCOc1ccc(NC(=O)CCc2c(C)nn(-c3ccc(N4CCCC4)nn3)c2C)cc1` , output reported activity change, negative = inhibition.
4.71

Input `O=C(CC(O)(C(F)(F)F)C(F)(F)F)Nc1ccc(Cl)c(Cl)c1` , output reported activity change, negative = inhibition.
-45.8

Input `Fc1ccc2[nH]c3c(N4CCN(Cc5ccc6c(c5)OCO6)CC4)ncnc3c2c1` , output reported activity change, negative = inhibition.
-7.57

Input `O=C(c1cccs1)c1cn(CCOc2ccc(Cl)cc2)c2ccccc12` , output reported activity change, negative = inhibition.
-2.17

Input `O=C(O)C1CCN(S(=O)(=O)N2CCOCC2)CC1` , output reported activity change, negative = inhibition.
0.172

Input O=C(NCc1ccco1)C1CCCN(S(=O)(=O)c2cnc[nH]2)C1 (stereo not drawn) , output reported activity change, negative = inhibition.
6.39

Input `O=C(CSc1nnc(-c2ccncc2)n1-c1ccccc1)Nc1ccc(Cl)c(Cl)c1` , output reported activity change, negative = inhibition.
7.05

Input `COc1ccc(Cc2nc3ccc(C(=O)NCc4ccccc4Cl)cc3o2)cc1` , output reported activity change, negative = inhibition.
-19.1

Input `CCc1ccc(S(=O)(=O)Nc2cc3c(C(=O)OCc4ccccc4)c(C)oc3c3ccccc23)cc1` , output reported activity change, negative = inhibition.
7.58

Input `COc1ccc(Oc2coc3cc(OC(=O)c4cncc(Br)c4)ccc3c2=O)cc1` , output reported activity change, negative = inhibition.
-0.64

Input CC(NC(=O)c1cc(Sc2ccc(F)cc2F)nc2ccccc12)c1ccccc1 (stereo not drawn) , output reported activity change, negative = inhibition.
-44.9

Input `Cn1c(C(=O)N2CCC(C(=O)N3CCN(c4ccccc4)CC3)CC2)cc2sccc21` , output reported activity change, negative = inhibition.
-14.6

Input Cc1cccc(OCC(O)Cn2c(=N)n(CCN3CCOCC3)c3ccccc32)c1 (stereo not drawn) , output reported activity change, negative = inhibition.
-8.76

Input `CN(C)CCCNC(=S)N1CCC(c2nc3ccccc3[nH]2)CC1` , output reported activity change, negative = inhibition.
7.97

Input `COC(=O)c1sccc1NC(=O)c1ccc(Cl)cc1` , output reported activity change, negative = inhibition.
1.11

Input `CCOC(=O)C1CCN(C(=O)C2CCN(S(=O)(=O)N3CCCC3)CC2)CC1` , output reported activity change, negative = inhibition.
-2.4

Input `COC(=O)c1ccc(NC(=S)Nc2cccc(C)n2)cc1` , output reported activity change, negative = inhibition.
-4.64

Input `Cc1cc(C)cc(NS(=O)(=O)c2ccc3[nH]cc(C(=O)N4CCCCC4)c(=O)c3c2)c1` , output reported activity change, negative = inhibition.
-3.92

Input `O=C(CNC1CCCCC1)NCC1(c2ccccc2)CCCC1` , output reported activity change, negative = inhibition.
4.83

Input `CC1CCN(C(=O)C2CCN(S(=O)(=O)N3CCC4(CC3)OCCO4)CC2)CC1` , output reported activity change, negative = inhibition.
-37.8

Input `COC(=O)c1sccc1NC(=O)CCC1CCCC1` , output reported activity change, negative = inhibition.
1.13

Input `COc1ccc(OC)c(-n2nnc(-c3nc(-c4cc(OC)c(OC)c(OC)c4)no3)c2C)c1` , output reported activity change, negative = inhibition.
-6.72

Input `COC(=O)c1ccc(NC(=O)Nc2ccc(C)cc2)cc1` , output reported activity change, negative = inhibition.
-35.1

Input COCCCNC(=S)N1CCCC(c2nc3cc(C)c(C)cc3[nH]2)C1 (stereo not drawn) , output reported activity change, negative = inhibition.
-12

Input CC(NC(=O)c1cc(=O)[nH]c2ccccc12)c1ccc(F)cc1F (stereo not drawn) , output reported activity change, negative = inhibition.
-0.391

Input `O=S(=O)(c1cccc(-c2nnc3n2CCCCC3)c1)N1CCOCC1` , output reported activity change, negative = inhibition.
2.28

Input CC(C)NC(=O)C1CCC(Cn2c(=O)c3sccc3n(Cc3ccc(F)cc3)c2=O)CC1 (stereo not drawn) , output reported activity change, negative = inhibition.
0.886

Input COc1ccc(CNC(=O)C2CC(c3ccc(C(F)(F)F)cc3)=NO2)cc1 (stereo not drawn) , output reported activity change, negative = inhibition.
-1.82
